Tested on: COLO 205 colon
Assay: NCI-60 one-dose screen, 48 h
Details: 10 µM unless noted
About 83,000 compounds went through this panel and 20% of them were active in at least one assay; those are over-represented in the sample as a whole. The source made the active and inactive calls. How the source made its calls: active means growth percent below 10; inactive means the rest.
Use one of these outcomes when replying: active, inactive

Answered cases to consult:
COc1ccc(C(O)c2cc3c(N)c(C(=O)Nc4ccc(Br)cc4)sc3nc2C)cc1 (centres undefined): inactive
CCNC(=O)c1[nH]cc(-c2ccc(OC)cc2)c1-c1cc(OC)cc(OC)c1: inactive
C/C(=C(/c1ccccc1)c1ccc(OCC(O)CNCCN2CCOCC2)cc1)c1ccccc1 (centres undefined): active
CCC(C)N(CCNc1cc(OC)cc2cccnc12)CCC(C)C (centres undefined): inactive
COc1cc2nc(-c3ccc(C#N)cc3)[nH]c(=O)c2cc1OC: inactive
COc1ccc(C(=O)c2cc3c(N)c(C(=O)Nc4cccc(OC)c4)sc3nc2C)cc1: active
C=C(C)[C@@H]1CC[C@]2(C(=O)NCCCN(CCC#N)CCC#N)CC[C@]3(C)[C@H](CC[C@@H]4[C@@]5(C)CCC(=O)C(C)(C)[C@@H]5CC[C@]43C)[C@@H]12: inactive
Nc1nnc(C(=O)c2cnc3n(c2=O)CCCCC3)s1: inactive
CCOC(=O)c1c(O)cc(-c2ccccc2)cc1-c1sc(N(C)Cc2ccccc2)nc1Cl: inactive
Cc1nc2sc(C(=O)Nc3cccc(Br)c3)c(N)c2cc1C(=O)c1ccc(C(F)(F)F)cc1: inactive

Query :: // outcome(item) with item = Fc1cc(C2=NNC(c3ccc[nH]3)C2)ccc1-n1ccc(C(F)(F)F)n1 (centres undefined)
Result :: inactive

Query :: // outcome(item) with item = C[C@H]1[C@H](C)CC[C@]2(CO)CC[C@]3(C)C(=CC[C@@H]4[C@@]5(C)CCCNC(C)(C)[C@@H]5CC[C@]43C)[C@H]12
Result :: active
